- STUDY_TARGET: Coagulation factor XII (Homo sapiens, UniProt P00748);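 also: activated factor XIIa alpha cleaving a fluorogenic AMC peptide substrate; inhibitor potency from loss of enzyme activity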
- Assay type: functional
Active and inactive are the calls of the source.
Hello, when you answer, please use one of the following outcomes: active, inactive

Examples with answers:
NNC(=O)c1ccc(CSc2nc3ccccc3s2)cc1; inactive
COc1ccc(/C=C2/SC(=S)N(n3c(C)ccc3C)C2=O)cc1; inactive
Nc1n[nH]c(SCn2nnc3ccccc3c2=O)n1; inactive

Challenge: I'd appreciate the recorded outcome for `Cc1ccc(C(=O)C(=O)c2ccc(C)c(N)c2)cc1N` from this test.
Response given: active

* * *

// Cytochrome P450 1A2 (Homo sapiens) AC50 records

Example compounds with recorded AC50:
CN1/C(=C\C(=O)COC(=O)Cn2nnc(-c3ccccc3)n2)C(C)(C)c2ccccc21; 1.58 µM (inconclusive)
COc1ccccc1CNS(=O)(=O)c1ccc2ncc(C(=O)O)c(O)c2c1; 10 µM (inconclusive)
Cc1csc(NC(=O)CCNS(=O)(=O)c2ccc3c(c2)c(=O)n(C)c(=O)n3C)n1; 0.00631 µM (inconclusive)
COC(=O)[C@@]1(Cc2ccc(OC)cc2)[C@H]2c3cc(C(=O)N(C)C)[nH]c3C[C@H]2CN1C(=O)c1ccccc1; 20 µM (inconclusive)

Query compound follows.
Challenge: Fill blank: measured AC50 of the compound CCOC(=O)c1[nH]c(C)c(C(=O)OCC(=O)N2c3ccccc3CC2C)c1C (stereo not given) is ____.
Response given: 12.6 µM (inconclusive)

* * *

- EXPERIMENTAL_DETAILS: viability of uninfected HEp-2 cells – cell-based, HTS, cytotoxicity control for RSV inhibitor project, dose response (AID 2410)
- Assay type: functional
- CONDITIONS_USED: human respiratory syncytial virus
Active and inactive are the calls of the source.
Each entry below carries its recorded CC50.

Example compounds with recorded CC50:
CC(=O)COc1cccc2ccc(/C=C/c3ccc(Br)s3)nc12; 45.4 µM (active)
CCCN=C(S)N1CCN(c2nc(C)nc3sc4c(c23)CCCC4)CC1; 11.2 µM (active)

Challenge: Fill blank: measured CC50 of the compound `CCOCC(=O)Nc1ccc([N+](=O)[O-])cc1OC` is ____.
Response given: > 50 µM (active)

Challenge: For `O=C1CCC(/C=C/c2ccccc2)=NN1Cc1ccccc1Cl` then?
Response given: 27 µM (active)

* * *

- STUDY_TARGET: Cytochrome P450 3A4 (Homo sapiens);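 also: confirmatory qHTS run detecting inhibitors and substrates of CYP3A4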
- Sequence (P08684 whole entry): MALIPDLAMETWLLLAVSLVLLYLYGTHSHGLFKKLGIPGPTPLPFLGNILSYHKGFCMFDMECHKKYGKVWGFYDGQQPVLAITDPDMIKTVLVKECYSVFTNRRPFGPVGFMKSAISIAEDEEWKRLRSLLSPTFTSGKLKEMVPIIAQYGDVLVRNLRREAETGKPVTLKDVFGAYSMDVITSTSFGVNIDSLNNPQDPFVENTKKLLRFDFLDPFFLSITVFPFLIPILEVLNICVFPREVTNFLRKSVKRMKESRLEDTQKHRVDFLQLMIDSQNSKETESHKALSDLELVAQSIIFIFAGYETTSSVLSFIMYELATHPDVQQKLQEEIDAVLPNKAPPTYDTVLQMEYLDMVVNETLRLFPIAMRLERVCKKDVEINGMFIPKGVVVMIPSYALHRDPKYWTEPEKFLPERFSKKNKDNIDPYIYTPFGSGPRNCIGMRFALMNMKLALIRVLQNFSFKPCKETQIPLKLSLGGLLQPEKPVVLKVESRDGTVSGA
- CONDITIONS_USED: Potency
OBSERVABLE: AC50

Example molecules with recorded AC50:
COc1cc(O)c2c(=O)c(O)c(-c3ccc(O)c(O)c3)oc2c1 [RHAMNETIN]; 39.8 µM (inconclusive)
COC1(C#CC2C=CC(OC(C)=O)C(COC(C)=O)O2)CCCCC1 (stereo unspecified); 3.98 µM (inconclusive)
COC(=O)C1(C)C=CC2(CCCCC2)N1C(=O)c1ccccc1 (stereo unspecified); 20 µM (inconclusive)
C=CCc1ccc2c(c1)OCO2 [SAFROLE]; 3.16 µM (inconclusive)
CN(CCOc1ccc(C[C@H](Nc2ccccc2C(=O)c2ccccc2)C(=O)O)cc1)c1ccccn1; 3.16 µM (inconclusive)

Query molecule follows.
Challenge: Fill blank: measured AC50 of the molecule `Nc1cc(Cl)c(N)c(Cl)c1` is ____.
Response given: 20 µM (inconclusive)

* * *

Each entry below carries its recorded AC50.
- STUDY_TARGET: Cytochrome P450 2C19 (Homo sapiens)
- Sequence (P33261 whole entry): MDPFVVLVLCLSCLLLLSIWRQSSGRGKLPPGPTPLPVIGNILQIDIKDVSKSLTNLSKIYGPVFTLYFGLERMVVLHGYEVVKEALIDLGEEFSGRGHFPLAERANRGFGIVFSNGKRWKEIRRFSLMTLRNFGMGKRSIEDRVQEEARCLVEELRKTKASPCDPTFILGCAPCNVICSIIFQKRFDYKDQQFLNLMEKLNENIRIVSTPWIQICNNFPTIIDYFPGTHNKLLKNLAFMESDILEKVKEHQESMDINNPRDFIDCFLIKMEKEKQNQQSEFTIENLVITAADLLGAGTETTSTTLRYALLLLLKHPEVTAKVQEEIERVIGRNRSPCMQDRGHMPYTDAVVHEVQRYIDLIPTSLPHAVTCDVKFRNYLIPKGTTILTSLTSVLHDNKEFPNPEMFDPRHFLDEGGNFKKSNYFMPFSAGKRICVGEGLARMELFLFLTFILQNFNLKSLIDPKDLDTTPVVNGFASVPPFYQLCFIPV
- EXPERIMENTAL_DETAILS: Cytochrome panel assay with activity outcomes. Panel member name: p450-cyp2c19 Compounds with AC50 equal or less than 10 uM are considered active
- Format: functional
- CONDITIONS_USED: read-out: AC50

Example compounds with recorded AC50:
CCCn1nc(Oc2nc(NCC)nc(NC(C)C)n2)ccc1=O; 39.8 µM (inconclusive)
O=C(O)C1CCN(c2c([N+](=O)[O-])cc(C(F)(F)F)cc2[N+](=O)[O-])CC1; 14.1 µM (inconclusive)
CCOc1ccc(NC(=O)CN2CCN(S(=O)(=O)c3ccc(Cl)cc3)CC2)cc1; 0.562 µM (inconclusive)
Cc1c(Br)c([N+](=O)[O-])nn1CC(=O)NCc1cccs1; 5.01 µM (inconclusive)
COc1ncc2nc(-c3cccs3)c(=O)n(CCc3ccccc3)c2n1; 2.51 µM (inconclusive)
CCc1ccccc1NC(=O)c1ccc(F)c(S(=O)(=O)N2CCC(C(N)=O)CC2)c1; 31.6 µM (inconclusive)
Clc1ccc([C@@H](OCCN2CCCCC2)c2ccccc2)cc1; 6.31 µM (inconclusive)
N[N-][C+]1c2ccccc2N[C@H]1OC(=O)Nc1cccc(Cl)c1; 3.16 µM (inconclusive)
O=c1c(-c2ccc(F)c(F)c2)nc2cncnc2n1Cc1ccccc1; 0.0501 µM (inconclusive)

Query compound follows.
Challenge: Fill blank: measured AC50 of the compound `O=C1[C@@H]2C=CC=CC2=NC(=S)N1CCN1CCC(=C(c2ccc(F)cc2)c2ccc(F)cc2)CC1` is ____.
Response given: 10 µM (inconclusive)

* * *

- STUDY_TARGET: Voltage-dependent T-type calcium channel subunit alpha-1H (Homo sapiens);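 also: channel activity triggered by adding a high calcium stimulation buffer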
- Sequence (O95180 whole entry): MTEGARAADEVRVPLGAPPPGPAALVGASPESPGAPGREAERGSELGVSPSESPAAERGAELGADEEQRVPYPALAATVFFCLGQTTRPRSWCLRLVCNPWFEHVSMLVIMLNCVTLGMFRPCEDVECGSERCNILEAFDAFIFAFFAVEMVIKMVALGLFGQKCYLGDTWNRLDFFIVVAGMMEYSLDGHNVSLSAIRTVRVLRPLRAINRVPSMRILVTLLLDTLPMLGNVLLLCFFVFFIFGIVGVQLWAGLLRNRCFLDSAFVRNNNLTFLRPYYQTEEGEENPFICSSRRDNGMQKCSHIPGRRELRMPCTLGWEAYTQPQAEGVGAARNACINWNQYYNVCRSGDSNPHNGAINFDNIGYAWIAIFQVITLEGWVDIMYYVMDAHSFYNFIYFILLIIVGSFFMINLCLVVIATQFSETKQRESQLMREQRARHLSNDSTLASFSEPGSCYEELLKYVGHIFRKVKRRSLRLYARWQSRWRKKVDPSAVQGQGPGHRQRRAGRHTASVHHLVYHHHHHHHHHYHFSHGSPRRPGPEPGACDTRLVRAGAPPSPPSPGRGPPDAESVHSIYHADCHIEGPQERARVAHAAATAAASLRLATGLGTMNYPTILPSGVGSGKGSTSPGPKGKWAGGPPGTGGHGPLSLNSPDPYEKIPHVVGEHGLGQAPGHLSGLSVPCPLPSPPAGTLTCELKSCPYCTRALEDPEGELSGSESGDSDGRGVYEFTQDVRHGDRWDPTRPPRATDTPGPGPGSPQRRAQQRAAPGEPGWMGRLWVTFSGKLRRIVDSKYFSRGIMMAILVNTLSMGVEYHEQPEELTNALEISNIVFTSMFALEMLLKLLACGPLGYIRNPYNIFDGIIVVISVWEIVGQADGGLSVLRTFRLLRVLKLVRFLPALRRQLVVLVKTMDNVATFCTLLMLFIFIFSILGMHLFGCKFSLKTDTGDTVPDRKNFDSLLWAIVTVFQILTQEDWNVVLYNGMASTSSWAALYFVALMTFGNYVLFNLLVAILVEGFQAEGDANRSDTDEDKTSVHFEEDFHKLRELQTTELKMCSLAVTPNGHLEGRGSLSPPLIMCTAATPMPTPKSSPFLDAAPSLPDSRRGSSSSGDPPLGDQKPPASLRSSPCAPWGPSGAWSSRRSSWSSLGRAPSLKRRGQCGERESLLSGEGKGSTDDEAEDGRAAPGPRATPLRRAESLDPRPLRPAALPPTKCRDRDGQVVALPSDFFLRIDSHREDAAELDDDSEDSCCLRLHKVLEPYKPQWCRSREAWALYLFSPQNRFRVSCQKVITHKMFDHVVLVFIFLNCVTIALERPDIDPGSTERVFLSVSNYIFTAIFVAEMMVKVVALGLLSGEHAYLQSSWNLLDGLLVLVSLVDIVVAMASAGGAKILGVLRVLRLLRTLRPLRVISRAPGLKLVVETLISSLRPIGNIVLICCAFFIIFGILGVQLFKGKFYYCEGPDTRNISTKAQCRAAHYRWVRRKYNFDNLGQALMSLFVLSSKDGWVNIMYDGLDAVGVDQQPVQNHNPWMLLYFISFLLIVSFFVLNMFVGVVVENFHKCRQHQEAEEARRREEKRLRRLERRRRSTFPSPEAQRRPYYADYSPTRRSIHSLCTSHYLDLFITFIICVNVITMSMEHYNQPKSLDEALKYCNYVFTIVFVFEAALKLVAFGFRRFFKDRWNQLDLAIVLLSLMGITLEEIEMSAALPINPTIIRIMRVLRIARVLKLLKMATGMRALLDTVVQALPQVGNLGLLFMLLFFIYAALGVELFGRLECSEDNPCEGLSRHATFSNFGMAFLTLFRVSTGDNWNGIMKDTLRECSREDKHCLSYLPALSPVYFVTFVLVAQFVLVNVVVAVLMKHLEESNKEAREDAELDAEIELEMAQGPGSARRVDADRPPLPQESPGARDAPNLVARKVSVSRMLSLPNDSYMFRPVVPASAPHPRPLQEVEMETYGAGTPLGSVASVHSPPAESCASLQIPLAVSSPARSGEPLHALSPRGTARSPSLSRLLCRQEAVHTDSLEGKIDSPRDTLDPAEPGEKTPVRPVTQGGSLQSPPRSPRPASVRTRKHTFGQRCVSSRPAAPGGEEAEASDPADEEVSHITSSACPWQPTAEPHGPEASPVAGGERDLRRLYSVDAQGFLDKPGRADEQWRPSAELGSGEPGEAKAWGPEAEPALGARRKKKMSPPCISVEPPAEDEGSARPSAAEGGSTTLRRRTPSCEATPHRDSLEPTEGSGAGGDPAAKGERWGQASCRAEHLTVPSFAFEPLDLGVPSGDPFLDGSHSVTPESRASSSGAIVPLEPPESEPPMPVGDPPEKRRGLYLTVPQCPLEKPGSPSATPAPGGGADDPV
- Assay type: functional
The source made the active and inactive calls.
OBSERVABLE: EC50

Cc1ccccc1NC(=O)c1sc2nc3c(c(-c4ccco4)c2c1N)CCCC3; 10.1 µM (active)
CCN(CC)c1ccc(/C=C(/C#N)c2nc3ccccc3[nH]2)c(OC(C)C)c1; 3.84 µM (active)
CCOC(=O)C1CCCN(S(=O)(=O)c2ccc(OC)c3ccccc23)C1 (centres undefined); 0.647 µM (active)

Query molecule follows.
Challenge: So what EC50 did `Cc1oc(-c2ccccc2)cc1C(=O)Nc1cccc2ccccc12` get with Voltage-dependent T-type calcium channel subunit alpha-1H (Homo sapiens)?
Response given: 18 µM (active)

* * *

- STUDY_TARGET: Sentrin-specific protease 7 (Homo sapiens, UniProt Q9BQF6);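 also: Luminescence-based dose-response confirmation of ultra-high-throughput screening hits, measuring inhibition of SENP7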
- Sequence (Q9BQF6 whole entry): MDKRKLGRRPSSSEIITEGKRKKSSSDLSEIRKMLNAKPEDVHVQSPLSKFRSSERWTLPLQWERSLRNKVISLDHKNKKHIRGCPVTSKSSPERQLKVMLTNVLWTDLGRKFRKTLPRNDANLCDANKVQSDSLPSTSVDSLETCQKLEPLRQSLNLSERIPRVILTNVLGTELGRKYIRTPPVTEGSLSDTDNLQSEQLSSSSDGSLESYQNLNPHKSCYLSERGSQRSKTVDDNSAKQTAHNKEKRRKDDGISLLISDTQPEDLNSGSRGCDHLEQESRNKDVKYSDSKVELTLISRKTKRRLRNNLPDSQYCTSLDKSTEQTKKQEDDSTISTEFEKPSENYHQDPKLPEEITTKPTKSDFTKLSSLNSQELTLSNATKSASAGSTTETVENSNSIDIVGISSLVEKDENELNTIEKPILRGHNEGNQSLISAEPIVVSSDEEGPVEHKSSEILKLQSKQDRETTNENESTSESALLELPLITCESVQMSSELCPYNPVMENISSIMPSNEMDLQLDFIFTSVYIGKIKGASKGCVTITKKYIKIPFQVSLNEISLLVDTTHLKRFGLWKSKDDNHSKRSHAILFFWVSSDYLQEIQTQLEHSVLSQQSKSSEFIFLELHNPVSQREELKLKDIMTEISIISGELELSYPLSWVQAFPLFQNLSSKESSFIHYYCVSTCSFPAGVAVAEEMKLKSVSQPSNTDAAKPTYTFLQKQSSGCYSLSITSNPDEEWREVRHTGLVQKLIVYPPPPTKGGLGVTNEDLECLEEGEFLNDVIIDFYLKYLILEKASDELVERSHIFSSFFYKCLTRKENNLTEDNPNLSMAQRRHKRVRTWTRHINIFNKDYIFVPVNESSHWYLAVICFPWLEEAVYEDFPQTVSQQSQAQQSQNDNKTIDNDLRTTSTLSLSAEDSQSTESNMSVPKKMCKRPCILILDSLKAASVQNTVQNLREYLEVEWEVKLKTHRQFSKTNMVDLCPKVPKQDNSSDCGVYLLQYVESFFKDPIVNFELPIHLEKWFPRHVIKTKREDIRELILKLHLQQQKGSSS
- Format: functional
Activity calls are given as the source filed them.
Hello, when you answer, please use one of the following outcomes: 1 (yes) = active, 0 (no) = inactive

Challenge: I'd appreciate the recorded outcome for `Cc1cccc(-c2noc(C3CCCCC3)n2)c1` from this test.
Response given: 1 (yes)

Challenge: For `Cc1cccc(C(=O)Nc2scc(-c3ccc(Br)cc3)c2C(=O)O)c1` then?
Response given: 0 (no)

* * *

Each entry below carries its recorded IC50.
- Tested on: H9c2;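 also: cell death induced by hydrogen peroxide oxidative stress; compound pretreatment for 60 min then peroxide exposure for 2 h; potency is for protecting the cells against peroxide damage rather than for killing them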;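 also: confirmatory concentration-response retest of ultra-high-throughput screening hits for modulation of myocardial damage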
- EXPERIMENTAL_DETAILS: cells
- Format: functional, cell-based
- CONDITIONS_USED: Rattus norvegicus, H9c2, Myocardium
Activity calls are given as the source filed them.

Cc1ccc(-c2nn3c(C)nnc3c3ccccc23)cc1S(=O)(=O)NC(C)c1ccccc1 (centres undefined); 35.8 µM (inactive)

Challenge: Fill blank: measured IC50 of the compound `O=C1c2ccccc2C(=O)N1CCCCSc1nc2ccccc2c(=O)n1CCCN1CCOCC1` is ____.
Response given: 10.1 µM (active)

Challenge: For `COc1ccc(N(CC(=O)NCCSc2ccccc2)S(=O)(=O)c2ccccc2)c(OC)c1` then?
Response given: 10.8 µM (active)

Challenge: For `CCOC(=O)c1ccccc1NC(=O)CSc1ccc(-c2ccccn2)nn1` then?
Response given: 5.14 µM (active)
